- System: SARS-CoV-2 (USA_WA1/2020)
- Measurement Protocol: microbe, parasite or virus in culture
- Assay type: cell-based
- Condition Description: Severe acute respiratory syndrome coronavirus 2, Vero C1008, SARS-CoV-2 CPE assay, Vero E6 cells; confirmed anti-SARS-CoV-2 compounds; read-out: CPE EC50
Quantity Measured: EC50 (µM)
Give your result in µM as a bare value.

Worked cases, answers included:
The reported SARS-CoV-2 (USA_WA1/2020) EC50 of COC(=O)[C@@]12OC[C@]34[C@H]([C@@H](O)[C@@H]1O)[C@@]1(C)CC(=O)C(O)=C(C)[C@@H]1C[C@H]3OC(=O)[C@H](OC(=O)/C=C(\C)C(C)C)[C@@H]24 [Bruceantin] is 0.0319

The reported SARS-CoV-2 (USA_WA1/2020) EC50 of CC[C@H](CC#N)OC(=O)N[C@@H](C)c1cccc(NC(=O)Nc2ccc(-c3cnco3)c(OC)c2)c1 is 11.2

The reported SARS-CoV-2 (USA_WA1/2020) EC50 of CCn1c(-c2nonc2N)nc2cnc(Oc3cccc(NC(=O)c4ccc(OCCN5CCOCC5)cc4)c3)cc21 [GSK-269962A] is 7.94

The reported SARS-CoV-2 (USA_WA1/2020) EC50 of CN(C)c1cc2c(cc1Sc1nc3c(N)nccc3n1CCNCC(C)(C)C)OCO2 is 2.51

Now for a further compound.
The reported SARS-CoV-2 (USA_WA1/2020) EC50 of Oc1ccc(-c2nc(-c3ccncc3)c(-c3ccc(F)cc3)[nH]2)cc1 is 3.98

====

- Tested on: Vero E6 cells
- Condition Description: read-out: Cytotox CC50; cytotoxicity counter-assay, Vero E6 cells without virus
Quantity Measured: CC50
# output: numeric value plus its unit

The measured CC50 associated with Cc1c(CCOc2ccc(C(=O)O)cc2)c2cc(Cl)ccc2n1C(c1ccccc1)c1ccccc1 reads 12.6 µM

The measured CC50 associated with COc1ccc(CCNCc2ccc(OC)c3ccccc23)cc1 reads 7.08 µM

The measured CC50 associated with Cn1nnnc1Sc1ncnc2scc(-c3cccc(S(C)(=O)=O)c3)c12 reads 8.91 µM

The measured CC50 associated with COc1ccc2c(c1)c(CCN(C)C)cn2S(=O)(=O)c1ccccc1.O=C(O)C(=O)O [MS 245 oxalate] reads 12.6 µM

The measured CC50 associated with COc1cccc(CCc2ccccc2OCC(CN(C)C)OC(=O)CCC(=O)O)c1.Cl (stereo not shown) [Sarpogrelate hydrochloride] reads 15.8 µM

The measured CC50 associated with O=C(c1ccc(Nc2nccc(-c3cc4ccccc4s3)n2)cc1)N1CCC(N2CCCC2)CC1 reads 10 µM

Now for a further molecule.
The measured CC50 associated with CN(C)S(=O)(=O)c1ccc(NC(=S)N2CCC(C(O)(c3ccccc3)c3ccccc3)CC2)cc1 reads 19.9 µM

====

- System: SARS-CoV-2 (USA_WA1/2020)
- Measurement Protocol: microbe, parasite or virus in culture
- Format: cell-based
- Condition Description: Severe acute respiratory syndrome coronavirus 2, Vero C1008; SARS-CoV-2 CPE assay, Vero E6 cells; read-out: CPE % Efficacy
Where a name gives a salt, the structure may show the parent alone.
Quantity Measured: Emax
# output: numeric value plus its unit

Worked cases, answers included:
The measured Emax associated with O=C(Nc1ccc(-c2ccnc(Nc3ccc(N4CCOCC4)cc3)n2)cc1)C1CCCN1 (centres unmarked) reads 53.9%

The measured Emax associated with CN1CCC(c2cn(C)c3ccc(OS(=O)(=O)c4c(F)cccc4F)cc23)CC1 reads 101%

The measured Emax associated with Fc1ccc2[nH]ccc2c1-c1nc(N2CCOCC2)c2sc(CN3CCN(CC4CC4)CC3)cc2n1 reads 32.7%

Continuing:
The measured Emax associated with N#Cc1ccc2[nH]cc(CCCCN3CCN(c4ccc5oc(C(N)=O)cc5c4)CC3)c2c1 [Vilazodone Hydrochloride] reads 90.8%

The measured Emax associated with CN1CCN(C(c2ccccc2)c2ccc(Cl)cc2)CC1 (centres unmarked) reads 67.4%

The measured Emax associated with N#Cc1ccc2c(c1)N(CCCN1CCC(O)CC1)c1ccccc1S2 reads 107%

The measured Emax associated with C[C@@H](C(=O)Nc1ccc(Cl)cc1)C1CCC(c2ccnc3ccc(F)cc23)CC1 (some centres unmarked) reads 69.8%

The measured Emax associated with CN(C)CCOC(c1ccccc1)c1ccc(Br)cc1 (centres unmarked) [Bromodiphenhydramine] reads 36%

The measured Emax associated with CCCCOc1cc(C(=O)NCCN(CC)CC)c2ccccc2n1 reads 61.8%

The measured Emax associated with COc1c(-c2ccc3cc(NS(C)(=O)=O)ccc3c2)cc(-n2ccc(=O)[nH]c2=O)cc1C(C)(C)C reads 48.7%

The measured Emax associated with CCn1c(=O)c(-c2cc(NC(=O)Nc3ccccc3)c(F)cc2Br)cc2cnc(NC)cc21 reads 65.4%
